- TEST SETTINGS: buffer; pH 7.4; 200.0 µM
# solubility kinetic values compiled below
REPORTED ENDPOINT: solubility kinetic

>  <COMPOUND>
CCS(=O)(=O)N1CCN(c2ncnc3sc(C)c(C)c23)CC1

>  <REPORTED ENDPOINT>
solubility kinetic

>  <ENDPOINT VALUE>
> 51.1 µg/mL

$$$$
>  <COMPOUND>
O=C1ON=C(c2ccc([N+](=O)[O-])cc2)/C1=C/c1ccccc1O

>  <REPORTED ENDPOINT>
solubility kinetic

>  <ENDPOINT VALUE>
> 46.5 µg/mL

$$$$
>  <COMPOUND>
O=C(COC(=O)COc1ccccc1)NC1CCS(=O)(=O)C1 (stereo not given)

>  <REPORTED ENDPOINT>
solubility kinetic

>  <ENDPOINT VALUE>
> 49.1 µg/mL

$$$$
>  <COMPOUND>
Cc1ccc(S(=O)(=O)Nc2c(C)nn(C)c2C)c(C)c1

>  <REPORTED ENDPOINT>
solubility kinetic

>  <ENDPOINT VALUE>
> 44 µg/mL

$$$$
>  <COMPOUND>
COc1ccc(OC)c(N2C(=O)c3cccnc3C2=O)c1

>  <REPORTED ENDPOINT>
solubility kinetic

>  <ENDPOINT VALUE>
> 42.6 µg/mL

$$$$

* * *

# solubility kinetic values compiled below
- TEST SETTINGS: buffer; pH 7.4; 200.0 µM

>  <MOLECULE>
COc1cccc(Nc2nc(-c3ccccc3O)nc3ccccc23)c1

>  <solubility kinetic>
< 0.0002 mg/mL

$$$$
>  <MOLECULE>
COCc1c(CCl)cnc(C)c1O

>  <solubility kinetic>
> 0.0302 mg/mL

$$$$
>  <MOLECULE>
N#Cc1cnn(-c2ccc(F)cc2)c1N

>  <solubility kinetic>
> 0.0303 mg/mL

$$$$
>  <MOLECULE>
O=S(=O)(c1cc(F)ccc1F)N1CCN2CCCC2C1 (stereo not drawn)

>  <solubility kinetic>
> 0.0454 mg/mL

$$$$
>  <MOLECULE>
Cc1ccc(NC(=O)CN(C)C(=O)c2ccccn2)cc1

>  <solubility kinetic>
> 0.0425 mg/mL

$$$$
>  <MOLECULE>
O=C(COC(=O)c1cnccn1)NCc1ccc(Cl)cc1

>  <solubility kinetic>
> 0.0459 mg/mL

$$$$
>  <MOLECULE>
Cc1ccsc1C(=O)NCc1ccc(F)cc1

>  <solubility kinetic>
> 0.0374 mg/mL

$$$$
>  <MOLECULE>
O=C(CCn1c(=O)oc2ccccc21)Nc1ccc(C(=O)O)cc1

>  <solubility kinetic>
> 0.0489 mg/mL

$$$$
>  <MOLECULE>
Cc1ccnc2c1ccc1ccccc12

>  <solubility kinetic>
< 0.0004 mg/mL

$$$$
>  <MOLECULE>
COC(=O)c1ccccc1NC(=S)NC(C)=O

>  <solubility kinetic>
> 0.0378 mg/mL

$$$$
>  <MOLECULE>
C/C(CC1CC(C)(C)OC1=O)=N\NC(N)=S (stereo not drawn)

>  <solubility kinetic>
> 0.0365 mg/mL

$$$$
>  <MOLECULE>
Cc1nc([N+](=O)[O-])cn1CC(O)c1ccc(Cl)cc1 (stereo not drawn)

>  <solubility kinetic>
> 0.0423 mg/mL

$$$$
>  <MOLECULE>
Cc1ccc(C(=O)NCCC(=O)NCc2ccco2)cc1

>  <solubility kinetic>
> 0.0429 mg/mL

$$$$

* * *

- TEST SETTINGS: buffer; pH 7.4; 200.0 µM
REPORTED ENDPOINT: solubility kinetic

>  <MOLECULE>
CCc1ccc(CN(C)C(=O)c2ccc3c(c2)OCCO3)cc1

>  <REPORTED ENDPOINT>
solubility kinetic

>  <ENDPOINT VALUE>
> 46.7 µg/mL

$$$$
>  <MOLECULE>
CC(C)NC(=O)COc1ccccc1C#N

>  <REPORTED ENDPOINT>
solubility kinetic

>  <ENDPOINT VALUE>
> 32.7 µg/mL

$$$$
>  <MOLECULE>
COc1ccc(CCNC(=O)COC(=O)CCC(=O)c2cccs2)cc1OC

>  <REPORTED ENDPOINT>
solubility kinetic

>  <ENDPOINT VALUE>
> 60.8 µg/mL

$$$$
>  <MOLECULE>
COC(=O)c1ccccc1C(=O)N1CC(O)CO1 (stereo unspecified)

>  <REPORTED ENDPOINT>
solubility kinetic

>  <ENDPOINT VALUE>
> 37.7 µg/mL

$$$$
>  <MOLECULE>
N#C/C(=C\c1cccnc1)c1ccccn1

>  <REPORTED ENDPOINT>
solubility kinetic

>  <ENDPOINT VALUE>
> 31.1 µg/mL

$$$$
>  <MOLECULE>
O=C(O)c1ccccc1S(=O)(=O)CC(=O)N1CCCCC1

>  <REPORTED ENDPOINT>
solubility kinetic

>  <ENDPOINT VALUE>
> 46.7 µg/mL

$$$$

* * *

- TEST SETTINGS: buffer; pH 7.4; 200.0 µM
REPORTED ENDPOINT: log10 solubility kinetic (log10 of the value in µg/mL)

>  <COMPOUND>
Cc1ccc(NC(=S)Nc2cccc3cnccc23)cc1

>  <REPORTED ENDPOINT>
log10 solubility kinetic

>  <ENDPOINT VALUE>
1.48

$$$$
>  <COMPOUND>
Cc1ccc(CN2CCN(c3ccccc3Cl)CC2)o1

>  <REPORTED ENDPOINT>
log10 solubility kinetic

>  <ENDPOINT VALUE>
1.00

$$$$
>  <COMPOUND>
CCOc1ccccc1C(=O)Nc1ccc(NC(=O)c2ccccc2)cc1

>  <REPORTED ENDPOINT>
log10 solubility kinetic

>  <ENDPOINT VALUE>
0.23

$$$$
>  <COMPOUND>
Cc1nc2ccc(Cl)cc2nc1C

>  <REPORTED ENDPOINT>
log10 solubility kinetic

>  <ENDPOINT VALUE>
0.97

$$$$
>  <COMPOUND>
CC(=O)C1=C(C)OC(N)=C(C#N)C1c1cc([N+](=O)[O-])ccc1Cl (stereo not drawn)

>  <REPORTED ENDPOINT>
log10 solubility kinetic

>  <ENDPOINT VALUE>
1.62

$$$$
>  <COMPOUND>
O=C(COC(=O)COc1ccc2c(c1)CCC2)Nc1ccccc1C(F)(F)F

>  <REPORTED ENDPOINT>
log10 solubility kinetic

>  <ENDPOINT VALUE>
0.72

$$$$
>  <COMPOUND>
CCN(C(=O)COC(=O)c1ccc(Cl)c(S(=O)(=O)N2CCCCC2)c1)C1CCS(=O)(=O)C1 (stereo not drawn)

>  <REPORTED ENDPOINT>
log10 solubility kinetic

>  <ENDPOINT VALUE>
1.75

$$$$
>  <COMPOUND>
CCOC(=O)C1=C(C)OC(N)=C(C#N)C1c1cccs1 (stereo not drawn)

>  <REPORTED ENDPOINT>
log10 solubility kinetic

>  <ENDPOINT VALUE>
1.23

$$$$
>  <COMPOUND>
c1ccc(-c2csc(NC3CCCCC3)n2)cc1

>  <REPORTED ENDPOINT>
log10 solubility kinetic

>  <ENDPOINT VALUE>
0.61

$$$$
>  <COMPOUND>
CCOc1ccc(N=CNc2ccc(OCC)cc2)cc1

>  <REPORTED ENDPOINT>
log10 solubility kinetic

>  <ENDPOINT VALUE>
1.52

$$$$
>  <COMPOUND>
O=C(COc1ccc(NC(=O)c2ccccc2)cc1)c1ccccc1

>  <REPORTED ENDPOINT>
log10 solubility kinetic

>  <ENDPOINT VALUE>
0.04

$$$$
>  <COMPOUND>
CC(=O)NC(c1ccc2ccccc2c1)c1ccc2cccnc2c1O (stereo not drawn)

>  <REPORTED ENDPOINT>
log10 solubility kinetic

>  <ENDPOINT VALUE>
0.08

$$$$

* * *

# solubility kinetic values compiled below
- TEST SETTINGS: buffer; pH 7.4; 200.0 µM
REPORTED ENDPOINT: solubility kinetic

>  <MOLECULE>
COc1ccc2nc3c(nc2c1)CCCC3

>  <REPORTED ENDPOINT>
solubility kinetic

>  <ENDPOINT VALUE>
> 32.1 µg/mL

$$$$
>  <MOLECULE>
N/C(=N\S(=O)(=O)c1cccs1)c1ccccc1Cl

>  <REPORTED ENDPOINT>
solubility kinetic

>  <ENDPOINT VALUE>
> 45.1 µg/mL

$$$$
>  <MOLECULE>
O=C(CSc1nccc(=O)[nH]1)NC1CCCCCCC1

>  <REPORTED ENDPOINT>
solubility kinetic

>  <ENDPOINT VALUE>
> 44.3 µg/mL

$$$$
>  <MOLECULE>
CC1CCCC(NC(=O)Cn2cc(Br)ccc2=O)C1C (centres undefined)

>  <REPORTED ENDPOINT>
solubility kinetic

>  <ENDPOINT VALUE>
> 51.2 µg/mL

$$$$
